Please provide measured pKi for the entries that follow.
Molecular target: Low molecular weight phosphotyrosine protein phosphatase (Mus musculus)
Sequence (Q9D358 whole entry): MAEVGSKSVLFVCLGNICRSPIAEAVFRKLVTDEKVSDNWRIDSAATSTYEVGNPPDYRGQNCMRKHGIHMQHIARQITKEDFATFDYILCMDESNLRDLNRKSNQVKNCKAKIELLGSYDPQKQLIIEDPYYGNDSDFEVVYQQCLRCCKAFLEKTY
Give bare numbers, as −log10 of the molar value.

O=[N+]([O-])c1ccc(CP(=O)(O)O)cc1 | 3.91

Then this compound:
input: Need pKi of `O=P(O)(O)Cc1ccc(CCl)cc1` , thanks.
output: 4.33

----------
assay: Inhibition of bovine heart acid phosphatase; parameters: species or system Bos taurus
Readout Kind: Ki
The reply must contain the numeric value and, after it, the unit.

input: Need Ki of `O=P(O)(O)Cc1ccccc1` , thanks.
output: 4.6 mM

----------
assay: Inhibition of Yersinia-protein YopH using pNPP substrate
Readout Kind: Ki (mM)
Numbers only, in mM.

input: Need Ki of `O=P(O)(O)Cc1ccccc1` , thanks.
output: 5
